For each entry below, report its solubility at 30 min value.
assay_text: Individual component solubilities in t-butanol/water solutions (HPLC)
particulars: 80% t-butanol in water, 37 °C, organic solvent or mixture, thermodynamic from solid, Solubility, about 37° C.

smiles_data=CCCCCCCCCCCCCCCCO result="> 224 mg/mL"

Lookup: Entry CCCCCCCCCCCCCCCC(=O)OC[C@H](COP(=O)([O-])OCC[N+](C)(C)C)OC(=O)CCCCCCCCCCCCCCC has what solubility at 30 min?
Found: > 133 mg/mL

====

For each entry below, report its solubility at 30 min value.
assay_text: Individual component solubilities in t-butanol/water solutions (HPLC)
particulars: 100% t-butanol, 37 °C, organic solvent or mixture, thermodynamic from solid, Solubility, about 37° C.

molecule="CCCCCCCCCCCCCCCCO [CA, cetyl alcohol]" readout="solubility at 30 min" result="> 270 mg/mL"

Lookup: Entry CCCCCCCCCCCCCCCC(=O)OC[C@H](COP(=O)([O-])OCC[N+](C)(C)C)OC(=O)CCCCCCCCCCCCCCC [DPPC, dipalmitoyl phosphatidylcholine] has what solubility at 30 min?
Found: > 150 mg/mL

====

assay_text: Individual component solubilities in t-butanol/water solutions (HPLC)
particulars: 95% t-butanol in water, 37 °C, organic solvent or mixture, thermodynamic from solid, Solubility, about 37° C.
readout: solubility at 30 min

smiles_data=CCCCCCCCCCCCCCCCO result="> 251 mg/mL"

Now examine the next entry.
Lookup: Entry CCCCCCCCCCCCCCCC(=O)OC[C@H](COP(=O)([O-])OCC[N+](C)(C)C)OC(=O)CCCCCCCCCCCCCCC has what solubility at 30 min?
Found: > 150 mg/mL

====

assay_text: physchem
particulars: 37 °C, aqueous with cosolvent or surfactant or cyclodextrin, thermodynamic from solid
Where no end group is shown, it is not given here.
readout: Solubility

Lookup: Entry KLLLLKLLLLKLLLLKLLLLK [KL4] has what Solubility?
Found: > 67 mg/mL

====

assay_text: Individual component solubilities in t-butanol/water solutions (HPLC)
particulars: 90% t-butanol in water, 37 °C, organic solvent or mixture, thermodynamic from solid, Solubility, about 37° C.
For each entry below, report its solubility at 30 min value.

smiles_data=CCCCCCCCCCCCCCCC(=O)OC[C@H](COP(=O)([O-])OCC[N+](C)(C)C)OC(=O)CCCCCCCCCCCCCCC result="> 145 mg/mL"

Now examine the next entry.
Lookup: Entry CCCCCCCCCCCCCCCCO has what solubility at 30 min?
Found: > 229 mg/mL
